Molecular target: HLA-DQ molecule DQB1*0503 (human)
Experiment: inhibition of radiolabeled peptide binding to purified HLA
Overview of reported pIC50 across a group of binders:
Please report pIC50 as the negative decimal logarithm of the molar concentration, giving only the number.

Give the measured pIC50 for PSVIPAARLFKAFIL [Aln g 1 peptide 3324.0004 (position 11)]
5.84

Give the measured pIC50 for RTLNKIVYIKPAKNI [Bet v 6 peptide 3324.0387 (position 206)]
5.46
